# TARGET OR TEST SYSTEM: CaSla1-D1-D2
# TEST DETAILS: SPOT peptide array binding signal intensity (averaged, normalized) (arbitrary units (background-subtracted, floor 0; scale differs between SH3 domains)); higher = stronger binding of the SH3 domain to the peptide
READOUT NAME: SPOT peptide array binding signal intensity

BINDER	RELATION SIGN	OBSERVED MEASUREMENT
ATNVPVAPPPPPASL	≤	0
FVLRYYILIPHEQWD	≤	0
SAPDIPPRSPNRNAH	=	290
WTQRRGPLVVYAEDN	≤	0
SLSRRRFSLPSMPNV	=	471
HKVLRPFLLRRLKKD	=	8.5
SNRRPVPRRPSQPLN	=	1570
TTNRGPPPLPPRANV	=	436
NPTKSPPPPPSPSTM	=	49
